# Protocol Details: Measurement of imaging sensitivity (phantom experiment), 19F MRI
# Parameters: key: .smallcircle.: detectable as clear image; Δ: margially detectable as image; x: undetectable
# Test Conditions: 5 mM; 1.5 T, 20 min; complexes GRASS TR 10/TE 2 msec; 5-FU spin echo TR 4500/TE 100 msec
Test Readout: detectability as image at 5 mM

Compound	Test Readout	Test Value
O=C(O)CN1CCCN(CC(=O)O)CCN(Cc2ccc(C(F)(F)F)cc2)CCCN(CC(=O)O)CC1.[Gd] [Compound-3]	detectability as image at 5 mM	Δ
O=C(O)CN1CCCN(CC(=O)O)CCN(Cc2ccc(/C=C/c3cc(C(F)(F)F)cc(C(F)(F)F)c3)cc2)CCCN(CC(=O)O)CC1.[Gd] [Compound-13]	detectability as image at 5 mM	.smallcircle.
O=C(O)CN1CCCN(CC(=O)O)CCN(CC(=O)O)CCCN(CCN(Cc2cc(C(F)(F)F)cc(C(F)(F)F)c2)Cc2cc(C(F)(F)F)cc(C(F)(F)F)c2)CC1.[Gd] [Compound-20]	detectability as image at 5 mM	.smallcircle.
O=C(O)CN1CCCN(Cc2cc(C(F)(F)F)cc(C(F)(F)F)c2)CCN(CC(=O)O)CCCN(Cc2cc(C(F)(F)F)cc(C(F)(F)F)c2)CC1.[Gd] [Compound-5]	detectability as image at 5 mM	.smallcircle.
O=C(O)CN1CCCN(CC(=O)O)CCN(Cc2cc(C(F)(F)F)cc(C(F)(F)F)c2)CCCN(CC(=O)O)CC1.[Cu] [Compound-23]	detectability as image at 5 mM	.smallcircle.
O=c1[nH]cc(F)c(=O)[nH]1 [Compound 5-FU, 5-fluorouracil, reference compound]	detectability as image at 5 mM	x
O=C(O)CN1CCCN(CC(=O)O)CCN(Cc2cc(C(F)(F)F)cc(C(F)(F)F)c2)CCCN(CC(=O)O)CC1.[Gd] [Compound-4]	detectability as image at 5 mM	.smallcircle.

* * *

T1 by entry:
# Protocol Details: Measurement of relaxation time (T1 and T2 of intramolecular fluorine atoms) by 90 MHz NMR
# Type: physicochemical
# Set-up: unit not given here
# Test Conditions: 10mM aqueous solution
Test Readout: T1

                               smiles_input  test_value
0  O=C([O-])CN1CCCN(CC(=O)[O-])CCN(Cc2cc(C(F)(F)F)cc(C(F)(F)F)c2)CCCN(CC(=O)[O-])CC1.[Cr+3]        15.5
1  O=C(O)CN1CCCN(CC(=O)O)CCN(Cc2ccc(/C=C/c3cc(C(F)(F)F)cc(C(F)(F)F)c3)cc2)CCCN(CC(=O)O)CC1.[Gd]        12.6
2  O=C(O)CN1CCCN(CC(=O)O)CCN(Cc2ccc(C(C(F)(F)F)(C(F)(F)F)C(F)(F)F)cc2)CCCN(CC(=O)O)CC1.[Gd]        3.27
3  O=C(O)CN1CCCN(CC(=O)O)CCN(Cc2cc(C(F)(F)F)cc(C(F)(F)F)c2)CCCN(CC(=O)O)CC1.[Gd]        2.16
4  O=C(O)CN1CCN(CC(=O)O)CCN(Cc2cc(C(F)(F)F)cc(C(F)(F)F)c2)CCN(CC(=O)O)CC1.[Gd]        2.11
5  O=C(O)CN1CCCN(CC(=O)O)CCN(Cc2cc(C(F)(F)F)cc(C(F)(F)F)c2)CCCN(CC(=O)O)CC1.[Cu]        36.5

* * *

# Protocol Details: Measurement of relaxation time (T1 and T2 of intramolecular fluorine atoms) by 90 MHz NMR
# Type: physicochemical
# Set-up: unit not given here
# Test Conditions: 10mM aqueous solution
Form field: T2 (one value per entry).
Test Readout: T2

                               smiles_input  test_value
0  O=C(O)CN1CCCN(CC(=O)O)CCN(Cc2cc(C(F)(F)F)cc(C(F)(F)F)c2)CCCN(CC(=O)O)CC1.[Gd]        1.82
1  O=C(O)CN1CCCN(CC(=O)O)CCN(Cc2ccc(/C=C/c3cc(C(F)(F)F)cc(C(F)(F)F)c3)cc2)CCCN(CC(=O)O)CC1.[Gd]        9.31
2  O=C(O)CN1CCCN(CC(=O)O)CCN(Cc2ccc(C(C(F)(F)F)(C(F)(F)F)C(F)(F)F)cc2)CCCN(CC(=O)O)CC1.[Gd]        2.83

* * *

# Protocol Details: Measurement of relaxation time (T1 and T2 of intramolecular fluorine atoms) by 90 MHz NMR
# Assay type: physicochemical
# Set-up: unit not given here
# Test Conditions: 10mM aqueous solution
Test Readout: T2

                                   molecule  test_readout  test_value
0  O=C([O-])CN1CCCN(CC(=O)[O-])CCN(Cc2cc(C(F)(F)F)cc(C(F)(F)F)c2)CCCN(CC(=O)[O-])CC1.[Cr+3] [Compound-24]            T2        10.4
1  O=C(O)CN1CCCN(CC(=O)O)CCN(Cc2cc(C(F)(F)F)cc(C(F)(F)F)c2)CCCN(CC(=O)O)CC1.[Cu] [Compound-23]            T2        24.9
2  O=C(O)CN1CCN(CC(=O)O)CCN(Cc2cc(C(F)(F)F)cc(C(F)(F)F)c2)CCN(CC(=O)O)CC1.[Gd] [Compound-8]            T2        1.79

* * *

# Protocol Details: Measurement of imaging sensitivity (phantom experiment), 19F MRI
# Parameters: key: .smallcircle.: detectable as clear image; Δ: margially detectable as image; x: undetectable
# Test Conditions: 100 mM; 1.5 T, 20 min; complexes GRASS TR 10/TE 2 msec; 5-FU spin echo TR 4500/TE 100 msec
Test Readout: detectability as image at 100 mM

>>> df
                                   molecule     test_value
0  O=C(O)CN1CCCN(CC(=O)O)CCN(Cc2cc(C(F)(F)F)cc(C(F)(F)F)c2)CCCN(CC(=O)O)CC1.[Gd]  .smallcircle.
1  O=C(O)CN1CCCN(Cc2cc(C(F)(F)F)cc(C(F)(F)F)c2)CCN(CC(=O)O)CCCN(Cc2cc(C(F)(F)F)cc(C(F)(F)F)c2)CC1.[Gd]  .smallcircle.
2  O=C(O)CN1CCCN(CC(=O)O)CCN(Cc2ccc(C(F)(F)F)cc2)CCCN(CC(=O)O)CC1.[Gd]  .smallcircle.
3  O=C(O)CN1CCCN(CC(=O)O)CCN(Cc2cc(C(F)(F)F)cc(C(F)(F)F)c2)CCCN(CC(=O)O)CC1.[Cu]  .smallcircle.
4  O=C(O)CN1CCCN(CC(=O)O)CCN(CC(=O)O)CCCN(CCN(Cc2cc(C(F)(F)F)cc(C(F)(F)F)c2)Cc2cc(C(F)(F)F)cc(C(F)(F)F)c2)CC1.[Gd]  .smallcircle.
5  O=C(O)CN1CCCN(CC(=O)O)CCN(Cc2ccc(/C=C/c3cc(C(F)(F)F)cc(C(F)(F)F)c3)cc2)CCCN(CC(=O)O)CC1.[Gd]  .smallcircle.
6  O=c1[nH]cc(F)c(=O)[nH]1 [Compound 5-FU, 5-fluorouracil, reference compound]              Δ
